- system_under_test: NADPH oxidase 2 (Homo sapiens)
- test: compounds shifting NOX2 Amplex Red fluorescence – cell-based, HEK293-NOX2, PMA-stimulated, NOX inhibitor project, primary screen (AID 1159); also: test concentration not given here
- cond: 45 min, higher = more signal, called active from +8 up or from −8 down
Range-based classes on measured z-score: lowest: < -0.9; middle: ≥ -0.9 and < 1; highest: ≥ 1

compound	system_under_test	group_label
CN1C(=O)C2C=CC(C(O)c3c(F)cccc3Cl)N(NC(=O)OC(C)(C)C)C2C1=O (stereo not given)	NADPH oxidase 2 (Homo sapiens)	lowest
C[N+](C)(C)CCCCCCNC(=O)[C@H]1C[C@H]2C(=O)N[C@@H](Cc3ccccc3)C(=O)N2[C@H]1c1cccc(OCCO)c1	NADPH oxidase 2 (Homo sapiens)	highest
CN(C)CCCCNC(=O)[C@@H]1C[C@@H]2C(=O)N[C@@H](CCCCN)C(=O)N2[C@@H]1c1ccc(O)cc1	NADPH oxidase 2 (Homo sapiens)	highest
CC[C@@H]1C=C(C(=O)O)[C@H](c2cccc3ccccc23)N1S(=O)(=O)c1ccc(C)cc1	NADPH oxidase 2 (Homo sapiens)	middle
O=C1[C@H]2C=C(I)[C@H](C[C@@H]2OCCCCO)[C@@]12CO2	NADPH oxidase 2 (Homo sapiens)	middle
O=C(CS)NCCCCCNC(=O)[C@@H]1C[C@@H]2C(=O)NCC(=O)N2[C@@H]1c1cccc(OCCO)c1	NADPH oxidase 2 (Homo sapiens)	highest
CC(C)(C)OC(=O)CC[C@@]1(C(=O)N2CCCCC2)N=C(c2ccc(OCCCO)cc2)O[C@@H]1c1ccccc1	NADPH oxidase 2 (Homo sapiens)	lowest
CCOC(=O)C[C@H]1[C@H](OC(=O)c2ccc(C(=O)c3ccccc3)cc2)[C@@H](NC(=O)c2ccccc2)c2cc(OCCCO)ccc2N1C(=O)c1ccccc1	NADPH oxidase 2 (Homo sapiens)	middle
[N-]=[N+]=Nc1ccccc1[C@H]1OC(c2ccc(OCCCO)cc2)=N[C@@]1(Cc1ccccc1)C(=O)N1CCOCC1	NADPH oxidase 2 (Homo sapiens)	lowest
CCCC=C(CCC)[C@@H](NS(=O)(=O)c1ccc(Cl)cc1)c1ccc(C(=O)OC)cc1	NADPH oxidase 2 (Homo sapiens)	middle
COc1ccc(C(O)C2C=CC3C(=O)N(C)C(=O)C3N2N(c2ccccc2)c2ccccc2)c2ccccc12 (stereo not given)	NADPH oxidase 2 (Homo sapiens)	middle
COc1ccccc1CN1C(=O)c2ccccc2[C@@H](C(=O)NCc2ccccc2)[C@@H]1c1ccc(CO)cc1	NADPH oxidase 2 (Homo sapiens)	lowest
O=C1O[C@H](c2ccccc2)[C@H](c2ccccc2)N2[C@H]1[C@@H](C(=O)N1CCN(c3ncccn3)CC1)[C@]1(C(=O)Nc3ccc(C#CC4=CCCCC4)cc31)[C@H]2c1ccccc1OCCO	NADPH oxidase 2 (Homo sapiens)	highest
COCCOC(=O)N1C(=O)[C@@]2(c3ccccc31)[C@H](c1ccc(OCCO)cc1)N1[C@H](c3ccccc3)[C@H](c3ccccc3)OC(=O)[C@H]1[C@@H]2C(=O)N1CCc2cc(OC)c(OC)cc2C1	NADPH oxidase 2 (Homo sapiens)	highest
C=CC[C@@]1(C(=O)N2CCCCC2)N=C(c2ccc(OCCCO)cc2)O[C@@H]1c1ccccc1CN=[N+]=[N-]	NADPH oxidase 2 (Homo sapiens)	lowest

----------
- test: compound effects on lung adenocarcinoma cell viability – A549, calcein-AM fluorescence, 48 h, basal, profiling panel (AID 1162); also: test concentration not given here
- cond: higher = more signal
Threshold rule: z-score greater than or equal to -0.1 is met; below that, not met.

molecule	group_label
CS(=O)(=O)CCOC(=O)C1=CC(CCCO)=CC(c2ccc(CN3CCCC3)cc2)N(Cc2cccc(OC(F)(F)F)c2)C=C1C(=O)OCCS(C)(=O)=O (stereo not given)	met
O=C(O)[C@H]1C[C@H]2C(=O)N3CCC[C@H]3C(=O)N2[C@H]1c1ccc(O)cc1	met
CN(C)CCCCCCNC(=O)[C@@H]1C[C@@H]2C(=O)N3CCC[C@H]3C(=O)N2[C@@H]1c1ccc(O)cc1	met
C=CCC(OC(C)=O)[C@@H]1[C@@H](N(Cc2ccc(-c3cccc(C(F)(F)F)c3)o2)C(=O)c2cccc3ccccc23)c2cc(OCCCO)ccc2N1C(=O)Cc1ccc2ccccc2c1 (stereo not given in full)	not met
Cc1ccc(S(=O)(=O)N2C[C@@H](C(=O)O)[C@H](Sc3ccccc3)C[C@H]2c2ccccc2)cc1	not met
[N-]=[N+]=NCc1ccccc1[C@@H]1OC(c2ccc(OCCCO)cc2)=N[C@]1(CCS(=O)(=O)c1ccccc1)C(N)=O	met
CN1CCC(CCCO)=CC1c1cccs1 (stereo not given)	met
CCCNC(=O)[C@@H]1c2ccccc2C(=O)N(Cc2ccccc2OC)[C@H]1c1ccc(CO)cc1	met
C=C(CCCC)/C(=C/C[C@H](OC(C)=O)c1ccc(OCCO)cc1)c1cnc2ccccc2c1	not met
CCOC(=O)C[C@H]1[C@H](OC(=O)c2ccc(-c3ccccc3)cc2)[C@@H](NC(=O)c2ccccc2)c2cc(OCCCO)ccc2N1C(=O)c1ccc2ccccc2n1	not met
COCCCNC(=O)[C@@]1(CCS(=O)(=O)c2ccccc2)N=C(c2ccc(OCCCO)cc2)O[C@H]1c1ccccc1N=[N+]=[N-]	not met
Cc1ccc(C2C3C(=O)CC4C(=O)N(c5ccccc5)C(=O)C4C3CN2S(=O)(=O)c2ccc(C)cc2)cc1 (stereo not given)	not met
COC(=O)[C@@]1(Cc2ccc(OC)cc2)[C@H]2c3cc(C(=O)N4CCCC4)n(Cc4nc5ccccc5[nH]4)c3C[C@H]2CN1C(=O)c1ccccc1	not met
C#CCN1[C@H](/C=C/C2CC2)[C@H](Cc2ccccc2)OC(=O)[C@@H]1Cc1ccccc1	not met
COC(=O)[C@@]1(Cc2ccccc2)[C@H]2c3cc(C(=O)N(C)C)n(CCc4c[nH]c5ccc(O)cc45)c3C[C@H]2CN1C(=O)c1ccccc1	not met

----------
- system_under_test: E3 ubiquitin-protein ligase XIAP (Homo sapiens) (UniProt P98170)
- Sequence (P98170 whole entry, looked up): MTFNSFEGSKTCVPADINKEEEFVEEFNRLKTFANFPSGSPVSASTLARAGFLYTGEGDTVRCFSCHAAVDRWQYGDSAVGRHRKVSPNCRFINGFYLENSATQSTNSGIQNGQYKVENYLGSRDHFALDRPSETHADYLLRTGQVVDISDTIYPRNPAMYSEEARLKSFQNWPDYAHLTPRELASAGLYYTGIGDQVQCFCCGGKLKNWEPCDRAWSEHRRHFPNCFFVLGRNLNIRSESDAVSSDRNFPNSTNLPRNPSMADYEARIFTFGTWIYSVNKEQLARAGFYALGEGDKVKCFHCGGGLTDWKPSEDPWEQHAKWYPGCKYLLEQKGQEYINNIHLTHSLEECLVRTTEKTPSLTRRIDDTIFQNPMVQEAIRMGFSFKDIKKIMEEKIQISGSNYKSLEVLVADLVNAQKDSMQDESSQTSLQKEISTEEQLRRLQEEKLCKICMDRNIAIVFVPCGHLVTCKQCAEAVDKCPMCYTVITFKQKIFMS
- test: small molecules binding XIAP protein – biophysical, small-molecule microarray, fluorescence 635 nm, primary screen (AID 1181)
- cond: higher = more signal
Label Met when composite z-score is at or above -0.02; otherwise label Not met.

molecule	group_label
CCC(CC)C(O)C1C=CC2C(=O)N(c3ccccc3)C(=O)C2N1Nc1ccccc1 (configuration not stated)	Met
CCCCCCCCCCC(O)C1C=CC2C(=O)NC(=O)C2N1Nc1ccc(Cl)cc1Cl (configuration not stated)	Not met
COCC(=C=CC[C@H](O)c1ccccc1OCCO)CCO	Not met
CCCCC(O)C1C=CC2C(=O)N(C)C(=O)C2N1N1CCCCC1 (configuration not stated)	Met
CS(=O)(=O)CCOC(=O)C1=CC(CCCO)=CC(C2CC2)N(Cc2cc3c(cc2Br)OCO3)C=C1C(=O)OCCS(C)(=O)=O (configuration not stated)	Met
O=C1[C@@]23C=C(Br)[C@H](C[C@@H]2COC3)[C@]12CO2	Not met
CN1C(=O)C2C=CC(C(O)c3c(F)cccc3Cl)N(NC(=O)OC(C)(C)C)C2C1=O (configuration not stated)	Met
CC(C)OC(=O)C=C1C[C@@H](c2cccc(Cl)c2)O[C@@H](c2cccc(Cl)c2)O1	Met
O[C@@H](Cc1ccccc1)[C@@H](/C=C/C1CC1)NCc1cccc(Cl)c1	Not met
NC(=O)NCC#Cc1ccc2c(c1)[C@]1(C(=O)N2)[C@H](C(=O)O)[C@H]2C(=O)O[C@H](c3ccccc3)[C@H](c3ccccc3)N2[C@@H]1c1ccc(O)cc1	Met
COCC(=C=CC[C@H](O)c1cccc(OCCO)c1)C[C@H](O)c1cc(Cl)cc(Cl)c1O	Not met
COc1cc2c(cc1OC)CN(C(=O)[C@H]1[C@@H]3C(=O)O[C@@H](c4ccccc4)[C@@H](c4ccccc4)N3[C@@H](c3ccccc3OCCO)[C@]13C(=O)Nc1ccc(C#CCCO)cc13)CC2	Not met
COCC(=C=CC[C@@H](O)c1ccc(OCCO)cc1)C[C@@H](O)c1ccccn1	Met
C=C(/C(=C/C[C@H](OC(C)=O)c1ccc(OCCO)cc1)c1cc(C(=O)OC)ccc1OC)C(C)C	Not met
O=C(NCc1ccccc1)[C@@H]1c2ccccc2C(=O)N(C2Cc3ccccc3C2)[C@H]1c1ccc(CO)cc1	Not met
C=CCN(Cc1ccccc1)C(=O)C(c1cccs1)N(C(=O)/C=C\C(=O)O)c1ccc(CCOCCO)cc1 (configuration not stated)	Not met
C=C(CCCC)/C(=C/C[C@@H](OC(C)=O)c1cccc(OCCO)c1)c1cnc2ccccc2c1	Not met
O=C(CS)NCCCCCNC(=O)[C@@H]1C[C@@H]2C(=O)NCC(=O)N2[C@@H]1c1cccc(OCCO)c1	Not met
CCCC1(C(=O)OC)C=C2C(=C(c3ccccc3)C(=O)C2C)CN1 (configuration not stated)	Met
CCCC(=O)N(CCc1c[nH]c2ccccc12)[C@@H]1CC(C(=O)NCCO)=C[C@H](Oc2c(I)cc(CO)cc2OC)[C@H]1O	Not met
CC(C)[Si](C#CCCCC#N)(O[C@H](c1ccccc1)c1cn(Cc2cccc(Cl)c2)nn1)C(C)C	Met
O=C1C2C=CC(C(O)COCc3ccccc3)N(Nc3ccc([N+](=O)[O-])cc3)C2C(=O)N1c1ccccc1 (configuration not stated)	Met
COC(=O)c1c(CC[C@@H](CO)NC(=O)N[C@H](Cc2ccccc2)Cn2cc(-c3ccccn3)nn2)oc(C(C)=O)c1C(=O)OC	Not met
COCCOC(=O)N1C(=O)[C@@]2(c3ccccc31)[C@H](C(N)=O)[C@H]1C(=O)O[C@H](c3ccccc3)[C@H](c3ccccc3)N1[C@@H]2c1ccc(O)cc1	Met
C=CC[C@@]1(C(=O)N2CCCCC2)N=C(c2ccc(OCCCO)cc2)O[C@@H]1c1ccccc1N=[N+]=[N-]	Met
COCC(=C=CC[C@H](O)c1cccc(OCCO)c1)CCO	Met
COCCOC(=O)N1C(=O)[C@@]2(c3cc(C#CC4(O)CCCCCC4)ccc31)[C@H](c1ccccc1OCCO)N1[C@H](c3ccccc3)[C@H](c3ccccc3)OC(=O)[C@H]1[C@@H]2C(=O)N1CCc2cc(OC)c(OC)cc2C1	Not met
COCCOC(=O)N1C(=O)[C@@]2(c3cc(C#CC4=CCCCC4)ccc31)[C@H](c1ccc(OCCO)cc1)N1[C@H](c3ccccc3)[C@H](c3ccccc3)OC(=O)[C@H]1[C@@H]2C(=O)N1CCc2cc(OC)c(OC)cc2C1	Not met
COCCCNC(=O)[C@@]1(Cc2ccccc2)N=C(c2ccc(OCCCO)cc2)O[C@H]1c1ccccc1CN=[N+]=[N-]	Met
CC#CC(=O)Oc1ccc(Br)cc1C=CC(=O)OCC	Met
C=C(CCCC)/C(=C/C[C@H](OC(C)=O)c1ccc(OCCO)cc1)c1cnc2ccccc2c1	Not met
